Cited source: patent US20210388084A1

# Target Under Test: T1, membrane-bound full-length human CD89 (human, UniProt P24071 22-287)
# T1 construct: on stably or transiently transfected HEK293F cells; also called FcalphaRI; huCD89
# Experimental Details: FACS, HEK293F-huCD89, 24 h 37C no NaN3, Ab 10 ug/mL then IgA; competitor heat-aggr serum IgA
Quick reference for percent IgA binding (remaining) among some binders

Binder: mouse anti-human CD89-specific antibody 10E7 (antibody, mouse IgG1, V domains shown) VH: EVQLVESGGGLVQPGGSLKLSCAASGLTFSSYGMSWVRQTPDKRLELVATINGNGDITYYPDSVKGRFTISRDNAKNTLYLQMSSLKSEDTAMYYCARDYDYDYAMDYWGQGTSVTVSS VL: DIQMTQSTSSLSASLGDSVTISCRASQDIINYLNWYQQKPDGTVKLLIYYTSRLHSGVPSRFSGSGSGTEYSLTVSNLEKEDIATYFCQQGKTLPYTFGGGTKLEIK
percent IgA binding (remaining): 0 to 25%
--
Binder: mouse anti-human CD89-specific antibody 8F3 (antibody, mouse IgG1, V domains shown) VH: EVQLVESGGGLVKPGGSLKLSCAASGFTFSNYGMSWVRQTPDKRLEWVATMHSGGTYTYYPDNVKGRFTISRDNAKNNLYLQMSSLRSEDTAMYYCARETGLYDGLFDFWGQGTTLTVSS VL: DVQITQSPSYLAASPGETITINCRASKTISKYLAWYQEKPGKTNMLLIYSGSTLQSGVPSRFSGSGSGTDFTLTISSLEPEDLAMYYCQQHDEYPWTFGGGTKLEIK
percent IgA binding (remaining): 0 to 25%
--
Binder: mouse anti-human CD89-specific antibody 30C7 (antibody, mouse IgG1, V domains shown) VH: QVQLQQSGPELVRPGVSVKISCKGSGYTFTDYVMHWVKQSHAKSLEWIGVISTYSGNTNYNQKFKGKATMTVDKSSSTAYMELARLTSEDSAIYYCARESDGYYFDYWGQGTTLTVSS VL: DIVMSQSPSSLAVSAGEKVTMSCKSSQSLLNSRTRKNYLAWYQQKPGQSPKLLIYWASTRESGVPDRFTGSGSGTDFTLTISSVQAEDLAVYYCKQSYNLMYTFGGGTKLEIK
percent IgA binding (remaining): 0 to 25%
--
Binder: mouse anti-human CD89-specific antibody 20B4 (antibody, mouse IgG1, V domains shown) VH: QVQLKESGPGLVAPSQSLSITCTVSGFSLTSYGVHWVRQPPGKGLEWLGIIWAGGSTSYNSALMSRLSISKDNSKSQVFLKMNSLQTDDTAMYYCARDHYDLFAYWGQGTLVTVSA VL: DILMTQSPSSMSVSLGDTVSITCHASQDISRNIGWLQQKPGKSFKGLIYHGTNLEDGVPSRFSGSGSGADYSLTISSLESEDFADYYCVQYAQFPRTFGGGTKLEIK
percent IgA binding (remaining): 26 to 50%

Moving on to another binder below.
INPUT: Quick one: percent IgA binding (remaining) of mouse anti-human CD89-specific antibody 16D6 (antibody, mouse IgG1, V domains shown, also called 16D16) VH: QVQLQQSGAELMKPGASVKISCKATGYTFSTYWIEWVKQRPGHGLEWIGEILPGSGSANYNEKFKGKATFTADTSSNTAYMQLSSLTFEDSAVYYCAKGFGSPYYYAMDYWGQGTSVTVSS VL: EIVLTQSPALMAASPGEKVTITCSVSSSISSSNLHWYQQKSETSPKPWIYGTSKLASGVPVRFSGSGSGTSYSLTISNMEAEDAATYYCQQWSSFPLTFGGGTKLEIK ?
OUTPUT: 76 to 125%
